- test-system: SmbA (Caulobacter vibrioides, UniProt Q9A5E6, DEL198-215)
- Construct: SmbA∆loop, partial loop 7 deletion (fragment 198–215 deleted), His6
- Sequence (Q9A5E6 with tags, fused parts or gaps DEL198-215): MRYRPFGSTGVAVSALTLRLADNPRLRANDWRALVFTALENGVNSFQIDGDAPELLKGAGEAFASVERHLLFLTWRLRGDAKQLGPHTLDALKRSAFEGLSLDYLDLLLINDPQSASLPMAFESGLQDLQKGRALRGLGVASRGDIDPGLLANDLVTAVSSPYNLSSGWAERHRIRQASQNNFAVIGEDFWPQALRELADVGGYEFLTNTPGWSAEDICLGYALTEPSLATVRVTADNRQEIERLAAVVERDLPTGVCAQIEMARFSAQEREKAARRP
- assay: X-ray crystal structure at […] Å; ITC ([…] stoichiometry)

>  <compound>
Nc1nc2c(ncn2[C@@H]2O[C@@H]3CO[P@](=O)(O)O[C@H]4[C@@H](O)[C@H](n5cnc6c(=O)[nH]c(N)nc65)O[C@@H]4CO[P@](=O)(O)O[C@H]3[C@H]2O)c(=O)[nH]1 [c-di-GMP]

>  <Kd>
1.8 µM

$$$$
